Would you kindly list Ki for each of these molecules?
Biological target: Prostaglandin D2 receptor 2 (Homo sapiens)
Sequence (Q9Y5Y4 whole entry): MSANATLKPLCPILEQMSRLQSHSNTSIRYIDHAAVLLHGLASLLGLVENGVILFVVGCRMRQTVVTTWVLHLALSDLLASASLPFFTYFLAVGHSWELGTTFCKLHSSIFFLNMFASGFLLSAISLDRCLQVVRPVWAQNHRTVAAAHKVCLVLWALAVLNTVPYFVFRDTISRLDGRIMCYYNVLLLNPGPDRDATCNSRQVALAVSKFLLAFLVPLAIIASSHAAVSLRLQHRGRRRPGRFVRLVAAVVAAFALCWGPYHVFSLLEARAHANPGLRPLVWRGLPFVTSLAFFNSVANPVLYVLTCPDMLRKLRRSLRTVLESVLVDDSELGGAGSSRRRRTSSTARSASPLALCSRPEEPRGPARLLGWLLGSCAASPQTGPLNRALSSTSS
Experiment: The inhibitory activity can be investigated by a radioligand binding assay (Sawyer et al., Br. J. Pharmocol 2002, 137, 1163-72). The radioligand binding assay was performed at room temperature in binding buffer (10 mM HEPES/KOH pH […], with protease inhibitor cocktail tablets), containing 1.5 nM [3H]PGD2 (Amersham, 156 Cie/mmol), and 10 ug of hCRTH2 HEK293 (EBNA) cell membrane protein in a final volume of 100 ul in 96 well plates (Corning, USA). Non-specific binding was determined in the presence of 1 uM PGD2 (Cayman, USA). Competing pyrazine sulfonamides were diluted in dimethylsulphoxide so that the total volume of dimethylsulfoxide was kept constant at 1% dimethylsulphoxide (Me2SO). 10 ul of the pyrazine sulfonamides were added. Incubation (60 min at room temperature) was terminated by rapid filtration through 96 wells hydrophobic GF/C Unifilter plates.
Answers are plain numbers, in nM.

Observe how each entry below is paired with its result.
In [3]: df
Out[3]:
                            chemical_smiles  readout_type  reported_measurement
0  O=S(=O)(Nc1nccnc1-c1ccc(Cn2c(-c3ccccn3)cc3ccccc32)cc1)c1ccccc1C(F)(F)F            Ki                   850
1  O=S(=O)(Nc1nccnc1-c1ccc(COc2ccc(F)cc2)cc1)c1ccccc1C(F)(F)F            Ki                   480
2  O=S(=O)(Nc1nccnc1-c1ccc(CN(Cc2ccccc2)c2ccccn2)cc1)c1ccccc1Cl            Ki                  2640
3  O=S(=O)(Nc1nccnc1-c1ccc(CN(Cc2ccccc2)c2ccccn2)cc1)c1ccccc1C(F)(F)F            Ki                  4440
4  N#Cc1ccc(OCc2ccc(-c3nccnc3NS(=O)(=O)c3ccccc3C(F)(F)F)cc2)cc1            Ki                  1590

Batch: Ki for all items listed.
1. Cc1cc2cc(Cl)ccc2n1Cc1ccc(-c2nccnc2NS(=O)(=O)c2ccccc2C(F)(F)F)cc1
2. CN(Cc1ccc(-c2nccnc2NS(=O)(=O)c2ccccc2C(F)(F)F)cc1)c1ccc(Cl)cc1
3. O=S(=O)(Nc1nccnc1-c1ccc(COc2ccccc2)cc1)c1ccccc1C(F)(F)F
4. O=S(=O)(Nc1nccnc1-c1ccc(Cn2ccc3ccc(F)cc32)cc1)c1ccccc1C(F)(F)F
5. CN(Cc1ccc(-c2nccnc2NS(=O)(=O)c2ccccc2Cl)cc1)c1ccc(C#N)cc1
6. CN(Cc1ccc(-c2nccnc2NS(=O)(=O)c2ccccc2C(F)(F)F)cc1)c1cccc(F)c1

**Result**
4650
1470
1320
1930
1490
700

Batch: Ki for all items listed.
1. CCN(Cc1ccc(-c2nccnc2NS(=O)(=O)c2ccccc2C(F)(F)F)cc1)c1ccccc1
2. COc1ccc(OCc2ccc(-c3nccnc3NS(=O)(=O)c3ccccc3C(F)(F)F)cc2)cc1
3. CN(Cc1ccc(-c2nccnc2NS(=O)(=O)c2ccccc2Cl)cc1)c1ccc(F)cc1F
4. O=S(=O)(Nc1nccnc1-c1ccc(CN2CCOc3ccccc32)cc1)c1ccccc1C(F)(F)F
5. CN(Cc1ccc(-c2nccnc2NS(=O)(=O)c2ccccc2C(F)(F)F)cc1)c1ccc(Cl)cc1Cl

**Result**
[590, 2600, 2950, 620, 2820]

Batch: Ki for all items listed.
1. O=S(=O)(Nc1nccnc1-c1ccc(COc2cccc(Cl)c2)cc1)c1ccccc1C(F)(F)F
2. Cc1cc2ccccc2n1Cc1ccc(-c2nccnc2NS(=O)(=O)c2ccccc2C(F)(F)F)cc1

**Result**
[2900, 3060]
